This collection of values is drawn from ChEMBL document CHEMBL3885881.

- Species: Rattus norvegicus
- PROTOCOL DETAILS: DrugMatrix - Regimen: Daily Repeat
- Type: toxicity, organism-based, Sprague-Dawley
- Set-up: regimen Daily Repeat, gender Male, age 6-8 weeks
- COND: in vivo, po, 0 mg/kg, 120 h, tissue Plasma, route oral GAVAGE, dose level Control, time 5 day, vehicle .5 % CMC
ENDPOINT: PHOSPHORUS (mg/dL)

• Cc1onc(-c2ccccc2)c1-c1ccc(S(N)(=O)=O)cc1 = 12.07
• CN1CCC(=C2c3ccccc3C=Cc3ccccc32)CC1 = 10.87
• CO[C@H]1/C=C/O[C@@]2(C)Oc3c(C)c(O)c4c(c3C2=O)C2=NC3(CCN(CC(C)C)CC3)NC2=C(NC(=O)/C(C)=C\C=C\[C@H](C)[C@H](O)[C@@H](C)[C@@H](O)[C@@H](C)[C@H](OC(C)=O)[C@@H]1C)C4=O = 11.38
• C#C[C@]1(O)CC[C@H]2[C@@H]3CCc4cc(OC)ccc4[C@H]3CC[C@@]21C = 11.38
• CN1C(=O)COc2c(C(=O)NC3CN4CCC3CC4)cc(Cl)cc21 (stereo not drawn) = 12
• CC(C)[C@H]1CC[C@H](C(=O)N[C@H](Cc2ccccc2)C(=O)O)CC1 [NATEGLINIDE] = 12.27
• O=C1CCC(N2C(=O)c3ccccc3C2=O)C(=O)N1 (stereo not drawn) [THALIDOMIDE] = 11.8
• OC(CCN1CCCCC1)(c1ccccc1)C1CCCCC1 (stereo not drawn) = 12.32

---

- Species: Rattus norvegicus
- PROTOCOL DETAILS: DrugMatrix - Regimen: Daily Repeat
- Type: toxicity, organism-based, Sprague-Dawley
- Parameters: regimen Daily Repeat, gender Male, age 6-8 weeks
- COND: in vivo, po, 0 mg/kg, 120 h, tissue Plasma, route oral GAVAGE, dose level Control, time 5 day, vehicle 100 % WATER
Doc: threshold 400 u/L (exclusive). Items with ALKALINE PHOSPHATASE beneath it return y; others return n.

* CC(C)C[C@H](NC(=O)[C@@H](O)[C@H](N)Cc1ccccc1)C(=O)O [UBENIMEX] | y
* C[C@@H]1C[C@@H]([C@H](O)CC2CC(=O)NC(=O)C2)C(=O)[C@@H](C)C1 [CYCLOHEXIMIDE] | n
* ClC(Cl)Cl [CHLOROFORM] | y
* COC(=O)C1=C(C)NC(C)=C(C(=O)OCC(C)C)C1c1ccccc1[N+](=O)[O-] (stereo not given) [NISOLDIPINE] | y

---

- Species: Rattus norvegicus
- PROTOCOL DETAILS: DrugMatrix - Regimen: Daily Repeat
- Type: toxicity, organism-based, Sprague-Dawley
- Set-up: regimen Daily Repeat, gender Male, age 6-8 weeks
- COND: in vivo, po, 1500 mg/kg, 72 h, tissue Blood, route oral GAVAGE, dose level High, time 3 day, vehicle .5 % CMC
ENDPOINT: HEMATOCRIT (%)

* CNC(=C[N+](=O)[O-])NCCSCc1ccc(CN(C)C)o1 [RANITIDINE] | 35.4
* Cc1cc(=O)n(-c2ccccc2)n1C [ANTIPYRINE] | 35.67
* CO[C@H]1/C=C/O[C@@]2(C)Oc3c(C)c(O)c4c(c3C2=O)C2=NC3(CCN(CC(C)C)CC3)NC2=C(NC(=O)/C(C)=C\C=C\[C@H](C)[C@H](O)[C@@H](C)[C@@H](O)[C@@H](C)[C@H](OC(C)=O)[C@@H]1C)C4=O [RIFABUTIN] | 40.53
* Cc1ccc(S(=O)(=O)NC(=O)NN2CC3CCCC3C2)cc1 (configuration not stated) [GLICLAZIDE] | 39.57
* NC(=O)c1cnccn1 [PYRAZINAMIDE] | 35.87
* C[C@]1(Cn2ccnn2)[C@H](C(=O)O)N2C(=O)C[C@H]2S1(=O)=O [TAZOBACTAM] | 33.47
* O=C(N[C@H](CO)[C@H](O)c1ccc([N+](=O)[O-])cc1)C(Cl)Cl [CHLORAMPHENICOL] | 34.37

---

- Organism: Rattus norvegicus
- PROTOCOL DETAILS: DrugMatrix - Regimen: Daily Repeat
- Assay type: toxicity, organism-based, Sprague-Dawley
- Set-up: regimen Daily Repeat, gender Male, age 6-8 weeks
- COND: in vivo, po, 0 mg/kg, 72 h, tissue Plasma, route oral GAVAGE, dose level Control, time 3 day, vehicle .5 % CMC
Below is a list of entries, each paired with its recorded CREATINE PHOSPHOKINASE value.
ENDPOINT: CREATINE PHOSPHOKINASE (u/L)

* CO[C@H]1/C=C/O[C@@]2(C)Oc3c(C)c(O)c4c(c3C2=O)C2=NC3(CCN(CC(C)C)CC3)NC2=C(NC(=O)/C(C)=C\C=C\[C@H](C)[C@H](O)[C@@H](C)[C@@H](O)[C@@H](C)[C@H](OC(C)=O)[C@@H]1C)C4=O [RIFABUTIN] | 258.67
* C#C[C@]1(O)CC[C@H]2[C@@H]3CCc4cc(OC)ccc4[C@H]3CC[C@@]21C [MESTRANOL] | 258.67
* Clc1ccc2c(c1)C(N1CCNCC1)=Nc1ccccc1O2 [AMOXAPINE] | 442.5
* CN1CCC(=C2c3ccccc3C=Cc3ccccc32)CC1 [CYPROHEPTADINE] | 166.83
* Cc1onc(-c2ccccc2)c1-c1ccc(S(N)(=O)=O)cc1 [VALDECOXIB] | 156.17

---

The entries below come with measured LIPASE values attached.
- Species: Rattus norvegicus
- PROTOCOL DETAILS: DrugMatrix - Regimen: Daily Repeat
- Type: toxicity, organism-based, Sprague-Dawley
- Set-up: regimen Daily Repeat, gender Male, age 6-8 weeks
- COND: in vivo, po, 10 mg/kg, 120 h, tissue Plasma, route oral GAVAGE, dose level Low, time 5 day, […]
ENDPOINT: LIPASE (u/L)

- COCCOC(=O)C1=C(C)NC(C)=C(C(=O)OC(C)C)C1c1cccc([N+](=O)[O-])c1 (centres undefined): 9.33
- CCOC(=O)C1=C(C)NC(C)=C(C(=O)OC)C1c1cccc([N+](=O)[O-])c1 (centres undefined): 9.67
- COc1ccc2cc([C@H](C)C(=O)O)ccc2c1: 9
- CC(C)CC(N(C)C)C1(c2ccc(Cl)cc2)CCC1 (centres undefined): 11

---

- Species on record: Rattus norvegicus
- PROTOCOL DETAILS: DrugMatrix - Regimen: Daily Repeat
- Format: toxicity, organism-based, Sprague-Dawley
- Design: regimen Daily Repeat, gender Male, age 6-8 weeks
- COND: in vivo, po, 1500 mg/kg, 120 h, tissue Blood, route oral GAVAGE, dose level High, time 5 day, vehicle .5 % CMC
ENDPOINT: ABSOLUTE MONOCYTE (CELLS/uL)

* CO[C@H]1/C=C/O[C@@]2(C)Oc3c(C)c(O)c4c(c3C2=O)C2=NC3(CCN(CC(C)C)CC3)NC2=C(NC(=O)/C(C)=C\C=C\[C@H](C)[C@H](O)[C@@H](C)[C@@H](O)[C@@H](C)[C@H](OC(C)=O)[C@@H]1C)C4=O | 273
* O=C(N[C@H](CO)[C@H](O)c1ccc([N+](=O)[O-])cc1)C(Cl)Cl | 280
* NC(=O)c1cnccn1 [PYRAZINAMIDE] | 519
* CNC(=C[N+](=O)[O-])NCCSCc1ccc(CN(C)C)o1 | 42
* Cc1ccc(S(=O)(=O)NC(=O)NN2CC3CCCC3C2)cc1 (configuration not stated) [GLICLAZIDE] | 80.33
* Cc1cc(=O)n(-c2ccccc2)n1C [ANTIPYRINE] | 792.67
* C[C@]1(Cn2ccnn2)[C@H](C(=O)O)N2C(=O)C[C@H]2S1(=O)=O | 0

---

- Species: Rattus norvegicus
- PROTOCOL DETAILS: DrugMatrix - Regimen: Daily Repeat
- Format: toxicity, organism-based, Sprague-Dawley
- Design: regimen Daily Repeat, gender Male, age 6-8 weeks
- COND: in vivo, po, 0 mg/kg, 120 h, tissue Plasma, route oral GAVAGE, dose level Control, time 5 day, vehicle 100 % WATER
ENDPOINT: ALKALINE PHOSPHATASE (u/L)

• Nc1ccn([C@@H]2CS[C@H](CO)O2)c(=O)n1 = 395.67
• CC(C)(C)c1ccc(C(=O)CCCN2CCC(OC(c3ccccc3)c3ccccc3)CC2)cc1 = 395
• CC(C)NCC(O)COc1cccc2ccccc12 (stereo not given) = 339.67
• Cc1ncc([N+](=O)[O-])n1CCO = 367.5
• COc1cc2ncnc(Nc3ccc(F)c(Cl)c3)c2cc1OCCCN1CCOCC1 = 417.83

---

ALANINE AMINOTRANSFERASE values, listed per item
- Organism: Rattus norvegicus
- PROTOCOL DETAILS: DrugMatrix - Regimen: Daily Repeat
- Assay type: toxicity, organism-based, Sprague-Dawley
- Parameters: regimen Daily Repeat, gender Male, age 6-8 weeks
- COND: in vivo, po, 0 mg/kg, 120 h, tissue Plasma, route oral GAVAGE, dose level Control, time 5 day, vehicle 100 % WATER
ENDPOINT: ALANINE AMINOTRANSFERASE (u/L)

• CC(C)NCC(O)COc1cccc2ccccc12 (stereo not given) = 50.5
• COc1cc2ncnc(Nc3ccc(F)c(Cl)c3)c2cc1OCCCN1CCOCC1 = 44.67
• ClC(Cl)Cl [CHLOROFORM] = 50.17
• CC(C)C[C@H](NC(=O)[C@@H](O)[C@H](N)Cc1ccccc1)C(=O)O = 55.5
• Nc1ccn([C@@H]2CS[C@H](CO)O2)c(=O)n1 = 48.33
• C[C@@H]1C[C@@H]([C@H](O)CC2CC(=O)NC(=O)C2)C(=O)[C@@H](C)C1 [CYCLOHEXIMIDE] = 47.83
• COC(=O)C1=C(C)NC(C)=C(C(=O)OCC(C)C)C1c1ccccc1[N+](=O)[O-] (stereo not given) = 50.5
• CC(C)(C)c1ccc(C(=O)CCCN2CCC(OC(c3ccccc3)c3ccccc3)CC2)cc1 = 50.67
• C[N+](C)(C)CCO.[Cl-] [CHOLINE CHLORIDE] = 51.67
• Cc1ncc([N+](=O)[O-])n1CCO = 50.17
